Source listed as ChEMBL document CHEMBL4627416.

Entries with their measured IC50, system Voltage-gated inwardly rectifying potassium channel KCNH2 (Homo sapiens, UniProt Q12809):
Please give a number only; it is taken to be in µM.

As a guide, the following entries are already answered.
>  <MOL SMILES>
COc1cc(C2=CC3=NO[C@H](c4cc(F)c(F)c(F)c4)CN3CCC2)ccc1-n1cnc(C)c1

>  <UNIT OF MEASURE>
µM

>  <OBSERVED VALUE>
3.35

$$$$
>  <MOL SMILES>
COc1cc(C2=CC3=NOC[C@H](c4cc(F)c(F)c(F)c4)N3CCC2)ccc1-n1cnc(C)c1

>  <UNIT OF MEASURE>
µM

>  <OBSERVED VALUE>
2.61

$$$$
>  <MOL SMILES>
COc1cc(/C=C2\CCCN3C2=NO[C@H](c2cc(F)cc(F)c2)[C@@H]3C)ccc1-n1cnc(C)c1

>  <UNIT OF MEASURE>
µM

>  <OBSERVED VALUE>
2.01

$$$$

Could you now look at the following compound, please?
Ask: I'm curious: which IC50 was measured for COc1cc(/C=C2\CCCN3C2=NO[C@H](c2cc(F)c(F)c(F)c2)[C@@H]3C)ccc1-n1cnc(C)c1 tested on Voltage-gated inwardly rectifying potassium channel KCNH2 (Homo sapiens, UniProt Q12809)?
Result: 1.61

###

PROTOCOL DESCRIPTION: Volume of distribution at steady state in CD rat at 1 mg/kg, iv
Format: ADME, organism-based
RUN PARAMETERS: in vivo, read-out: Vdss
QUANTITY KIND: Vd (L/kg)
Please give a number only; it is taken to be in L/kg.

Ask: Field request: Vd | item: COc1cc(/C=C2\CCCN3C2=NO[C@H](c2cc(F)cc(F)c2)[C@@H]3C)ccc1-n1cnc(C)c1
Result: 1.1

###

Entries with their measured IC50, system Cytochrome P450 2D6 (Homo sapiens):
Please give a number only; it is taken to be in µM.

Ask: Field request: IC50 | item: COc1cc(C2=CC3=NO[C@H](c4cc(F)c(F)c(F)c4)CN3CCC2)ccc1-n1cnc(C)c1
Result: 48

Ask: Field request: IC50 | item: COc1cc(/C=C2\CCCN3C2=NO[C@H](c2cc(F)cc(F)c2)[C@@H]3C)ccc1-n1cnc(C)c1
Result: 49

Ask: Field request: IC50 | item: COc1cc(C2=CC3=NOC[C@H](c4cc(F)c(F)c(F)c4)N3CCC2)ccc1-n1cnc(C)c1
Result: 8

###

This section presents compounds with their documented concentration at 3 h values.
PROTOCOL DESCRIPTION: Drug level in plasma of CD rat at 30 mg/kg, po measured after 3 hrs
Type: ADME, organism-based
Please give a number only; it is taken to be in µM.

>  <MOL SMILES>
COc1cc(/C=C2\CCCN3C2=NO[C@H](c2cc(F)cc(F)c2)[C@@H]3C)ccc1-n1cnc(C)c1

>  <concentration at 3 h [µM]>
8.8

$$$$
>  <MOL SMILES>
COc1cc(/C=C2\CCCN3C2=NO[C@H](c2cc(F)c(F)c(F)c2)[C@@H]3C)ccc1-n1cnc(C)c1

>  <concentration at 3 h [µM]>
13.1

$$$$
>  <MOL SMILES>
COc1cc(C2=CC3=NOC[C@H](c4cc(F)c(F)c(F)c4)N3CCC2)ccc1-n1cnc(C)c1

>  <concentration at 3 h [µM]>
1.4

$$$$

Ask: Field request: concentration at 3 h | item: COc1cc(C2=CC3=NO[C@H](c4cc(F)c(F)c(F)c4)CN3CCC2)ccc1-n1cnc(C)c1
Result: 14.2

###

PROTOCOL DESCRIPTION: Selectivity index, ratio of IC50 for effect on total Abeta40 levels in HEK293 cells transfected with human APP with Swedish and London familial AD mutation incubated for 5 hrs by sandwich immuno-assay to IC50 for modulation of gamma secretase in HEK293 cells transfected with human APP with Swedish and London familial AD mutation assessed as reduction in Abeta42 levels incubated for 5 hrs by sandwich immuno-assay
QUANTITY KIND: Ratio IC50
Give a plain numeric answer without units written out.

>  <MOL SMILES>
COc1cc(/C=C2\CCCN3C2=NO[C@H](c2cc(F)cc(F)c2)[C@@H]3C)ccc1-n1cnc(C)c1

>  <Ratio IC50>
248

$$$$

Ask: Field request: Ratio IC50 | item: COc1cc(/C=C2\CCCN3C2=NO[C@H](c2cc(F)c(F)c(F)c2)[C@@H]3CO)ccc1-n1cnc(C)c1
Result: 221

Ask: Field request: Ratio IC50 | item: COc1cc(/C=C2\CCCN3C2=NO[C@H](c2cc(F)cc(F)c2)[C@@H]3C(C)C)ccc1-n1cnc(C)c1
Result: 174

###

TEST TARGET: UniProt O75469
Sequence (O75469 whole entry): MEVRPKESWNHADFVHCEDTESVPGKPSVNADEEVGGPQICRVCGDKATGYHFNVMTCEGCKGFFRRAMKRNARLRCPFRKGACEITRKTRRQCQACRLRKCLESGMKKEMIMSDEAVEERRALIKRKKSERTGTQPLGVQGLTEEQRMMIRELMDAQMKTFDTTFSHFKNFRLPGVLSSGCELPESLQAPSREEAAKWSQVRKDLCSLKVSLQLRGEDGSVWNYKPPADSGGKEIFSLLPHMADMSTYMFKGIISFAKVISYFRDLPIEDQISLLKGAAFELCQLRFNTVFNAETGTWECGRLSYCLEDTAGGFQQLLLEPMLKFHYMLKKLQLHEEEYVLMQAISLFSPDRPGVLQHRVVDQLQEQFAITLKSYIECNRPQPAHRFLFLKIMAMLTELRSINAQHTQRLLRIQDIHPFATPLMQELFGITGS
QUANTITY KIND: pIC50
# log scale: pIC50 equals minus log10 of the concentration in mol/L

Ask: Field request: pIC50 | item: COc1cc(/C=C2\CCCN3C2=NO[C@H](c2cc(F)cc(F)c2)[C@@H]3C)ccc1-n1cnc(C)c1
Result: 4.82

###

This section presents compounds with their documented log10(IC50) values.
TEST TARGET: Gamma-secretase
PROTOCOL DESCRIPTION: Modulation of gamma secretase in HEK293 cells transfected with human APP with Swedish and London familial AD mutation assessed as reduction in Abeta42 levels incubated for 5 hrs by sandwich immuno-assay
Short version: log10 scale, IC50, nM.

As a guide, the following entries are already answered.
>  <COMPOUND>
COc1cc(C2=CC3=NOC[C@H](c4cc(F)c(F)c(F)c4)N3CCC2)ccc1-n1cnc(C)c1

>  <QUANTITY KIND>
log10(IC50)

>  <OBSERVED VALUE>
2.16

$$$$
>  <COMPOUND>
COc1cc(C2=CC3=NOC(CO)(c4ccc(F)cc4)N3CCO2)ccc1-n1cnc(C)c1 (stereo not given)

>  <QUANTITY KIND>
log10(IC50)

>  <OBSERVED VALUE>
2.71

$$$$
>  <COMPOUND>
COc1cc(/C=C2\CCCN3C2=NO[C@H](c2cc(F)cc(F)c2)[C@@H]3C)ccc1-n1cnc(C)c1

>  <QUANTITY KIND>
log10(IC50)

>  <OBSERVED VALUE>
1.72

$$$$
>  <COMPOUND>
COc1cc(/C=C2\CCCN3C2=NOC[C@@H]3c2cc(F)c(F)c(F)c2)ccc1-n1cnc(C)c1

>  <QUANTITY KIND>
log10(IC50)

>  <OBSERVED VALUE>
1.57

$$$$
>  <COMPOUND>
COc1cc(/C=C2\CCCN3C2=NO[C@H](c2cc(F)cc(F)c2)[C@@H]3C(C)C)ccc1-n1cnc(C)c1

>  <QUANTITY KIND>
log10(IC50)

>  <OBSERVED VALUE>
2.05

$$$$

Could you now look at the following compound, please?
Ask: Field request: log10(IC50) | item: COc1cc(C(=O)N2CCCC(Cc3ccc(F)cc3)C2)ccc1-n1cnc(C)c1 (stereo not given)
Result: 3.19

###

Test system: rat MDR1A (P-glycoprotein)
PROTOCOL DESCRIPTION: Efflux ratio in pig LLC-PK1 cells transfected with rat MDR1A
Format: ADME, cell-based, Sus scrofa
QUANTITY KIND: efflux ratio
Give a plain numeric answer without units written out.

Ask: Field request: efflux ratio | item: COc1cc(/C=C2\CCCN3C2=NO[C@H](c2cc(F)cc(F)c2)[C@@H]3C)ccc1-n1cnc(C)c1
Result: 2.46

###

PROTOCOL DESCRIPTION: Apparent permeability of the compound
Assay type: ADME
RUN PARAMETERS: not told
QUANTITY KIND: Papp
Could you kindly put the unit after your number?

As a guide, the following entries are already answered.
>  <MOL SMILES>
COc1cc(/C=C2\CCCN3C2=NO[C@H](c2cc(F)c(F)c(F)c2)[C@@H]3C)ccc1-n1cnc(C)c1

>  <Papp>
14 ×10⁻⁶ cm/s

$$$$
>  <MOL SMILES>
COc1cc(C2=CC3=NOC[C@H](c4cc(F)c(F)c(F)c4)N3CCC2)ccc1-n1cnc(C)c1

>  <Papp>
23 ×10⁻⁶ cm/s

$$$$

Ask: Field request: Papp | item: COc1cc(C2=CC3=NO[C@H](c4cc(F)c(F)c(F)c4)CN3CCC2)ccc1-n1cnc(C)c1
Result: 22 ×10⁻⁶ cm/s

Ask: Field request: Papp | item: COc1cc(/C=C2\CCCN3C2=NO[C@H](c2cc(F)cc(F)c2)[C@@H]3C)ccc1-n1cnc(C)c1
Result: 17 ×10⁻⁶ cm/s
